The reader will find reported growth values listed item by item below.
# Test system: SK-MEL-28 melanoma
# protocol description: NCI-60 one-dose screen, 48 h (100 = growth as untreated, 0 = no growth, -100 = all killed)
# experimental parameters: 10 µM
The panel holds about 83,000 compounds, 20% with a hit somewhere; the sample as a whole holds those more often.
Give just the numeric value; % need not be written.

Completed entries (count: 2):
| compound | readout | measured |
| --- | --- | --- |
| CC(=O)Oc1cc(OC(C)=O)c2ccccc2c1OC(C)=O | growth | 99.5 |
| O=C(O)COc1c(Cl)cc([N+](=O)[O-])cc1Cl | growth | 102 |

QUERY: Value lookup for growth; key = "O=C(O)c1ccc(-n2cc(CNc3ccc(Cl)cc3)c(-c3ccccc3)n2)cc1"
RESULT: 92.8

QUERY: # query: growth of entry "COc1ccc2nc3cc(Cl)ccc3c(N)c2c1"
RESULT: -98.4

QUERY: What value of growth has been reported for the following compound? "CCN(CCCNc1cc2c(c(N)c1S(=O)(=O)O)C(=O)c1ccccc1C2=O)c1ccccc1"
RESULT: 102

QUERY: So what's the measured growth for this one? "c1ccc(CCCCc2ccc3ccccc3n2)cc1"
RESULT: 104

QUERY: Reported growth for "Cc1ccc(S(=O)(=O)N/N=C2\CCCc3ccccc32)cc1" : what is it?
RESULT: 105

QUERY: Report growth for "Cc1c(Cl)cccc1NC(=O)CCCl" please.
RESULT: 108

---

# Test system: COLO 205 colon
# protocol description: NCI-60 one-dose screen, 48 h
# experimental parameters: 10 µM
Compounds without any hit were thinned out: in the full panel of roughly 83,000, 20% have a hit. Calls of active or inactive are those of the source. The calls were made as follows: active = growth percent below 10; inactive = the rest.
Lab note: assign the record to one of active, inactive

| compound | label class |
| --- | --- |
| C=C(C)[C@@H]1CC[C@]2(COCCC#N)CC[C@]3(C)[C@H](CC[C@@H]4[C@@]5(C)Cc6c([nH]c7ccccc67)C(C)(C)[C@@H]5CC[C@]43C)[C@@H]12 | active |
| COc1ccc(-c2nn(-c3cccc(Cl)c3)cc2-c2cc(-c3ccccc3)nc(N)n2)cc1 | inactive |
| COc1ccc(-c2nn(-c3cccc(Cl)c3)cc2-c2cc(-c3ccccc3)[nH]c(=O)c2C#N)cc1 | inactive |

QUERY: I would be grateful if you could indicate the recorded call for "CCOC(=O)CC(S(=O)(=O)c1ccccc1)S(=O)(=O)c1ccccc1" .
RESULT: active

QUERY: Hi, sorry to bother you, what did the test record for "Cc1ccc(S(=O)(=O)N(C)CCCCCC(=O)O)cc1" ?
RESULT: inactive

QUERY: Assay outcome for COc1cc(C2CC(c3ccc4c(c3)OCO4)=NN2c2ccccc2)cc(OC)c1OC (centres undefined) : what was it?
RESULT: inactive

QUERY: Given "COc1cc2cc(Oc3ccc(NC(=O)c4cccc(C(F)(F)F)c4)cc3)c(C)nc2cc1OC" , state the outcome it received in this test.
RESULT: inactive

QUERY: Hello, I am checking results. What call was entered for "COc1cc2c3c(n([C@@H]4CCOC4)c(=O)c2cc1OC)-c1cc2c(cc1C3=O)OCO2" ?
RESULT: inactive

QUERY: // outcome(item) with item = "COc1ccccc1-n1c(-c2sc(NC(C)=O)nc2C)n[nH]c1=S"
RESULT: inactive

---

# Tested on: SW-620 colon
# protocol description: NCI-60 one-dose screen, 48 h
# experimental parameters: 10 µM
This is part of a sample that, as a whole, favours compounds with a hit. Of some 83,000 tested, about 20% had one in any assay. Calls of active or inactive are those of the source. The calls were made as follows: active = growth percent below 10; inactive = the rest.
I would appreciate it if you answered using one of these outcomes: active, inactive

QUERY: Test call for this compound, please: "COc1ccc2nc3cc(Cl)ccc3c(N)c2c1"
RESULT: active

QUERY: Tell me the assay call for "Cc1c2cnccc2c(C)c2c1c1cc(O)ccc1n2C(C)C" please.
RESULT: active

QUERY: Lab log entry: CC(=O)OC1C=CC(OC(C)=O)O1 (stereo unspecified) — outcome as called in the assay?
RESULT: inactive

QUERY: So what was the verdict on "O=C(N/N=C/c1cc([N+](=O)[O-])ccc1O)c1cccc2ccccc12" in this test?
RESULT: inactive

QUERY: Field: outcome | Entry: "COc1cc(Cc2cc(-c3ccccc3)n[nH]c2=O)cc(OC)c1OC"
RESULT: inactive

QUERY: Check the results log: what was the call for Cc1ccc(C2NC(=S)N3C(c4ccc(C)cc4)NC(=S)N23)cc1 (stereo unspecified) ?
RESULT: inactive

---

# Tested on: TK-10 renal
# protocol description: NCI-60 one-dose screen, 48 h (100 = growth as untreated, 0 = no growth, -100 = all killed)
# experimental parameters: 10 µM
This is part of a sample that, as a whole, favours compounds with a hit. Of some 83,000 tested, about 20% had one in any assay.
# label = fulfilled if growth >= 80% else not fulfilled

Study these solved cases before continuing.
| compound | label class |
| --- | --- |
| Cc1cc(C(C#N)c2ccc(Cl)cc2)c(Cl)cc1NC(=O)c1cc(I)cc(I)c1O (stereo unspecified) | not fulfilled |
| O=c1oc2c(cc1-c1ccc(F)cc1)C(O)Oc1ccccc1-2 (stereo unspecified) | not fulfilled |
| CCCc1nc(C(C)(C)O)c(C(=O)O)n1Cc1ccc(-c2ccccc2-c2nn[nH]n2)cc1 | fulfilled |

QUERY: growth >= 80% for "Oc1ccc(/C=N/N=C2c3ccccc3-c3ccccc32)c(O)c1" ?
RESULT: fulfilled

QUERY: Decide: growth of OCC1OC2C(NC(=S)N2c2ccccc2)C(O)C1O (stereo unspecified) >= 80%?
RESULT: fulfilled

QUERY: Record CCN1C(=O)CC(SC2CC(=O)N(CC)C2=O)C1=O (stereo unspecified) ; criterion: growth no lower than 80%. Met?
RESULT: fulfilled

---

# Tested on: HCT-116 colon
# protocol description: NCI-60 one-dose screen, 48 h (100 = growth as untreated, 0 = no growth, -100 = all killed)
# experimental parameters: 10 µM
Compounds without any hit were thinned out: in the full panel of roughly 83,000, 20% have a hit. Calls of active or inactive are those of the source. The calls were made as follows: active = growth percent below 10; inactive = the rest.
readout: growth

| compound | growth |
| --- | --- |
| COc1ccc(C2CC(c3cc(OC)c(OC)c(OC)c3)=NN2)cc1 (stereo not given) | 53.3% (inactive) |
| COc1cc2c3c(n(C4CCN(C)CC4)c(=O)c2cc1OC)-c1cc2c(cc1C3=O)OCO2 | 40.8% (inactive) |
| O=C(Nc1nc(-c2ccccc2)nc2c1sc(=S)n2-c1ccccc1)C(F)(F)F | 78.8% (inactive) |
| Cc1cc(Cl)ccc1Nc1nc(C(F)(F)F)ccc1C(=O)N/N=C/c1cccc(O)c1 | 17.6% (inactive) |

Now for another entry.
QUERY: What value of growth has been reported for the following compound? "O=C1/C(=C/c2ccc([N+](=O)[O-])s2)Oc2cc(Cl)ccc21"
RESULT: -17.8% (active)

---

# Tested on: RPMI-8226 leukemia
# protocol description: NCI-60 one-dose screen, 48 h
# experimental parameters: 10 µM
This is part of a sample that, as a whole, favours compounds with a hit. Of some 83,000 tested, about 20% had one in any assay. The source made the active and inactive calls. How the source made its calls: active means growth percent below 10; inactive means the rest.
Response enum: true (1) for active, false (0) for inactive

| compound | label class |
| --- | --- |
| S=C(SSC(=S)N(c1ccccc1)c1ccccc1)N(c1ccccc1)c1ccccc1 | false (0) |

QUERY: Which outcome was entered for the compound "O=C(CCCCCCC(=O)Nc1ccccc1)NO" in this test?
RESULT: false (0)

QUERY: Please indicate how the test categorized "CCOC(=O)c1cocc1C(=O)O" .
RESULT: false (0)

QUERY: Answer briefly: the call reported for "COc1ccc2nc3cc(Cl)ccc3c(NCCCNCCO)c2c1" in this assay.
RESULT: true (1)

QUERY: Hi team, can someone confirm the assay call for "O=C(Nc1ccc2c(O)cc(S(=O)(=O)O)cc2c1)c1ccc([N+](=O)[O-])cc1" ?
RESULT: false (0)

QUERY: Which outcome did this test record for the compound CN(C)c1ncnc2c1nnn2C1OC(CO)C(O)C1O (stereo unspecified) ?
RESULT: true (1)

QUERY: Recorded call for "COc1cc(/C=C/c2cc(/C=C/c3ccc(O)c(OC)c3)nc(N)n2)ccc1O" ?
RESULT: true (1)

---

# System: MALME-3M melanoma
# protocol description: NCI-60 one-dose screen, 48 h (100 = growth as untreated, 0 = no growth, -100 = all killed)
# experimental parameters: 10 µM
Compounds without any hit were thinned out: in the full panel of roughly 83,000, 20% have a hit.
Under this convention, condition met denotes growth strictly below 70% and condition not met denotes growth at or above 70%.

As a guide, the following entries are already answered.
| compound | label class |
| --- | --- |
| O=[N+]([O-])c1cccc(/C=N/NC(=S)NC23CC4CC(CC(C4)C2)C3)c1 | condition met |
| CC(C)(C)c1ccc(S(=O)(=O)N[C@H]2CC[C@H]3[C@@H]4CCc5cc(O)c([N+](=O)[O-])cc5[C@H]4CC[C@]23C)cc1 | condition met |
| Cc1c(Cl)cccc1NC(=O)CCCl | condition not met |

QUERY: Does the reported growth of "N#Cc1c(N)nc(-c2cc(F)cc(C(F)(F)F)c2)nc1-c1ccccc1F" stay below 70%?
RESULT: condition met

QUERY: Is growth strictly under 70% for the entry OC(CNc1ccnc2cc(Cl)ccc12)CNC1CCCCC1 (stereo not given) ?
RESULT: condition not met
